Listed below: Trimeric HA Binding RLU values for each entry.
Target: recombinant homotrimeric HA, A/Egypt/3300-NAMRU3/08 H5N1 (Influenza A virus A/Egypt/3300-NAMRU3/08 (H5N1))
Assay: trimeric HA microarray, transfection set 2
Conditions: remark: other sources report otherwise
I'd appreciate it if you included the unit after the number.

Reference set, count: 2
Binder	Result
TCN-523 (5248_A17) (antibody, V domains shown) VH: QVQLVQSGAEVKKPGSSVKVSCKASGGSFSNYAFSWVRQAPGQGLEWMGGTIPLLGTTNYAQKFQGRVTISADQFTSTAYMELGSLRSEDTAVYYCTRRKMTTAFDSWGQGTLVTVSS VL: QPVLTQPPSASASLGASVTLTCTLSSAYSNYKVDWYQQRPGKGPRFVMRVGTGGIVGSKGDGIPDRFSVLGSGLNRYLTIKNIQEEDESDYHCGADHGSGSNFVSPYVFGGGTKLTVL	30700 RLU
TCN-528 (5087_P17) (antibody, V domains shown) VH: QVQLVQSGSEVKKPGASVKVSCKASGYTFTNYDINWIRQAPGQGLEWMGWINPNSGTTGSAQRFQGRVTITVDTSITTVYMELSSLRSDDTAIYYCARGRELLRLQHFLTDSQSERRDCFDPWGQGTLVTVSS VL: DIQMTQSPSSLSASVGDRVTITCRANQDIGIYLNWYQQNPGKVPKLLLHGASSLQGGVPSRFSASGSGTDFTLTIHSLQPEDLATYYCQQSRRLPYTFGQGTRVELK	36800 RLU

Give the measured Trimeric HA Binding RLU of TCN-563 (5237_B21) (antibody, V domains shown) VH: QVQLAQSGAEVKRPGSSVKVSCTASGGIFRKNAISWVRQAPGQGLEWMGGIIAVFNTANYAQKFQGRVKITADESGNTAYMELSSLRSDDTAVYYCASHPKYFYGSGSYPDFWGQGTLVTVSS VL: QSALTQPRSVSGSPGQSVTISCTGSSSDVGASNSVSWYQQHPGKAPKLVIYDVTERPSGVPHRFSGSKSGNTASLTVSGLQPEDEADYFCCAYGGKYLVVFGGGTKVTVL .
23900 RLU
